reported property: melting point

Please review the following examples before continuing.
smiles data	result
Cc1ccc(-c2cc(=O)n3cc(N4CCN[C@@H](C)C4)ccc3n2)cc1F	175 to 178 °C
CCCN1CC=C(c2ccc3nc(-c4ccc5c(cnn5C)c4)cc(=O)n3c2)CC1	152 to 154 °C
COc1ncc(-c2cc(=O)n3cc(N4CCN[C@@H](C)C4)ccc3n2)cc1F	175 to 180 °C
COc1cc(-c2cc(=O)n3cc(N4CCN[C@@H](C)C4)ccc3n2)cc(F)c1F	160 to 164 °C
Cc1nc2ccc(-c3cc(=O)n4cc(N5CCC(N(C)C)CC5)ccc4n3)cc2o1	206 to 210 °C

Switching to the query record.
// Cc1cn2cc(-c3cc(=O)n4cc(C5CCN(C)CC5)ccc4n3)cc(C)c2n1 : melting point value = 200 to 202 °C

* * *

Readings of EC (1.5-fold increase) for the listed compounds
Test system: SMN2 minigene mRNA (SMN2-A minigene) in HEK293H cells
Experiment: SMN2 minigene mRNA splicing RT-qPCR assay in cultured cells
Assay type: cell-based, human
Details: Homo sapiens, HEK293-H; concentration increasing full length SMN2 mRNA 1.5-fold relative to vehicle-treated cells; HEK293H cells with SMN2-A minigene, 24 hours, 7-point concentration data; read-out: EC1.5x for production of full length SMN2 mRNA

compound	EC (1.5-fold increase)
CCc1cc(-c2cc(=O)n3cc(N4CCN(C5CCC5)[C@H](C)C4)ccc3n2)cn2cc(C)nc12	< 0.1 µM
COc1ccc(-c2ccc3nc(N4CC[C@@H](N(C)C)C4)cc(=O)n3c2)cc1F	1 to 3 µM

CCc1cc(-c2cc(=O)n3cc(N4CCN(CC)[C@H](C)C4)ccc3n2)cn2cc(C)nc12 tested on SMN2 minigene mRNA (SMN2-A minigene) in HEK293H cells gave EC (1.5-fold increase): < 0.1 µM

CN(C)c1ccc(-c2cc(=O)n3cc(N4CCNCC4)ccc3n2)cc1 tested on SMN2 minigene mRNA (SMN2-A minigene) in HEK293H cells gave EC (1.5-fold increase): 1 to 3 µM

Cc1cc(-c2cc(=O)n3cc(C4CCN(C)CC4)ccc3n2)cc2cn(C)nc12 tested on SMN2 minigene mRNA (SMN2-A minigene) in HEK293H cells gave EC (1.5-fold increase): < 0.1 µM

Cc1cn2nc(-c3cc(=O)n4cc(N5CCC6(CC5)CNC6)ccc4n3)cc2c(C)n1 tested on SMN2 minigene mRNA (SMN2-A minigene) in HEK293H cells gave EC (1.5-fold increase): < 0.1 µM

Cc1cn2cc(-c3cc(=O)n4cc(N5C[C@@H](C)N[C@@H](C)C5)ccc4n3)cc(F)c2n1 tested on SMN2 minigene mRNA (SMN2-A minigene) in HEK293H cells gave EC (1.5-fold increase): < 0.1 µM

CCN1CCC(c2ccc3nc(-c4ccc5nc(C)cn5c4)cc(=O)n3c2)CC1 tested on SMN2 minigene mRNA (SMN2-A minigene) in HEK293H cells gave EC (1.5-fold increase): < 0.1 µM

CCc1nc(C)cn2nc(-c3cc(=O)n4cc(N5CCN(C)CC5)ccc4n3)cc12 tested on SMN2 minigene mRNA (SMN2-A minigene) in HEK293H cells gave EC (1.5-fold increase): < 0.1 µM

Cc1nc2c(F)cc(-c3cc(=O)n4cc(N5CCN6CCC[C@H]6C5)ccc4n3)cc2o1 tested on SMN2 minigene mRNA (SMN2-A minigene) in HEK293H cells gave EC (1.5-fold increase): < 0.1 µM
